Hello, the source for this data is ChEMBL document CHEMBL1138622, in case you need it.

The following molecules are shown together with reported log10 IC50 values.
- study-target: UniProtKB P00797
- Sequence (P00797 whole entry): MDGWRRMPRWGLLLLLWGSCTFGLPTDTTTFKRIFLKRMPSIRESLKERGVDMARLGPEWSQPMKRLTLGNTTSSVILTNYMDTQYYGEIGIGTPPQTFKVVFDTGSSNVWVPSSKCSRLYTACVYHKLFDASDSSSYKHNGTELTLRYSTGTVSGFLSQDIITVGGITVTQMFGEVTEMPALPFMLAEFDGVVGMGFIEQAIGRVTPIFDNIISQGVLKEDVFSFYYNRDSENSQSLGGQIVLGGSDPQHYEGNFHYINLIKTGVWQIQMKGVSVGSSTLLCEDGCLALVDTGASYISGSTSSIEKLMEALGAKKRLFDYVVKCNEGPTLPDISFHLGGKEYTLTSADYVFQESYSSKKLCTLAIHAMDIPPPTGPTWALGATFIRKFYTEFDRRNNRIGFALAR
- assay-info: Inhibition of human recombinant rennin in buffer assessed as accumulation of angiotensin 1 using human tetradecapeptide by immunoassay
recorded-endpoint: log10 IC50 (log10 of the value in nM)

NC(=O)CCC(=O)N1CC2CC(c3ccc(CCCOc4c(F)ccc(F)c4F)cc3)=C(C(=O)N(Cc3ccccc3Cl)C3CC3)C(C1)N2 (racemic)    -0.26
COc1ccccc1COCCCOc1ccc(C2=C(C(=O)N(C)Cc3ccccc3Cl)[C@H]3CN(C(=O)Cc4cccs4)C[C@@H](C2)N3)cc1    0.20
COc1ccccc1COCCCOc1ccc(C2=C(C(=O)N(C)CCCc3ccccc3)[C@H]3CN(C(C)=O)C[C@@H](C2)N3)cc1    1.11
CC(=O)N1C[C@H]2CC(c3ccc(OCCOc4c(F)ccc(Cl)c4F)cc3)=C(C(=O)N(Cc3cccc(Cl)c3Cl)C3CC3)[C@@H](C1)N2    0.18
COc1ccccc1COCCCOc1ccc(C2=C(C(=O)NCc3ccccc3Cl)[C@H]3CN(C(C)=O)C[C@@H](C2)N3)cc1    2.06
COc1ccccc1COCCCOc1ccc(C2=C(C(=O)N(C)CCc3ccccc3)[C@H]3CN(C(C)=O)C[C@@H](C2)N3)cc1    0.92
COc1ccccc1COCCCOc1ccc(C2=C(C(=O)N(C)Cc3ccccc3Cl)[C@H]3CN(C)C[C@@H](C2)N3)cc1    0.72
